- System under test: AKR1C1 (Homo sapiens, UniProt Q04828)
- Sequence (Q04828 whole entry): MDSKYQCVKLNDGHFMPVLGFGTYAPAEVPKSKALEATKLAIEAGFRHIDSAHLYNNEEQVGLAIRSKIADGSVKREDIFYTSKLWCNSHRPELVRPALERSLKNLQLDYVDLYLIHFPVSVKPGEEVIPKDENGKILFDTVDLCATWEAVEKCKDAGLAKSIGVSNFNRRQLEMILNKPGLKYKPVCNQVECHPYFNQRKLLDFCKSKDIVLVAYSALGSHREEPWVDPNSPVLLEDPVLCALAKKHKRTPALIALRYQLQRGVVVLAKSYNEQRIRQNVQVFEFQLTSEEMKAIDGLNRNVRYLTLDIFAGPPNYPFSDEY
- Assay explanation: in vitro
- Assay setup: probe S-tetralol
- Description: Inhibition of recombinant human AKR1C1 expressed in Escherichia coli BL21 (D3) at 200 uM using S-tetralol as substrate in presence of NADP+ by UV-spectrophotometric method relative to control

{"columns": ["Compound smiles", "inhibition at 200 µM, %"],
 "data": [
  ["CC(C)=CCc1cc(/C=C/C(=O)O)cc(C(=O)NCc2cccc(OC(F)(F)F)c2)c1", 10.6]
]}

* * *

- System under test: AKR1C2 (Homo sapiens)
- Sequence (P52895 whole entry): as the sequence (Q04828 whole entry) above, with T38V, R47H, L54V, C87S, V151M, R170H, Q172L counted along it
- Assay explanation: in vitro
- Assay setup: probe S-tetralol
- Description: Inhibition of recombinant human AKR1C2 expressed in Escherichia coli BL21 (D3) at 200 uM using S-tetralol as substrate in presence of NADP+ by UV-spectrophotometric method relative to control
Measured quantity: inhibition at 200 µM

{"columns": ["Compound smiles", "Test value"],
 "data": [
  ["CC(C)=CCc1cc(/C=C/C(=O)O)cc(C(=O)NCc2ccc(C)cc2)c1", "66.5%"]
]}
